FYI, the data here is from patent US9751874B2.

- Target Of Assay: FXR ligand binding domain (Homo sapiens, UniProt Q96RI1)
- Sequence (Q96RI1 187-472 isoform Q96RI1-2): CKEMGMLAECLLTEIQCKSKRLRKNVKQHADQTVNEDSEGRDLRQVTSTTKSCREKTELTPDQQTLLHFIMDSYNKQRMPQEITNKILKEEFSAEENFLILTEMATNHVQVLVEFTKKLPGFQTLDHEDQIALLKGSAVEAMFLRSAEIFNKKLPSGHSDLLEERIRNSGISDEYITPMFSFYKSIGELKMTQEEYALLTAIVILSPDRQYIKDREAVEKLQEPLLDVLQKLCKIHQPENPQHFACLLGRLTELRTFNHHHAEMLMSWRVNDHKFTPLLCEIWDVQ
- Assay Method Text: Mammalian One Hybrid (M1H) assay, Gal4 promoter driven transactivation in HEK293 cells
- Run Conditions: Gal4-FXR-LBD luciferase reporter, 16 h
Measure Name: EC50

{"Molecule": "O=c1nc(-c2cc(F)c3nc([C@]4(O)[C@@H]5CC[C@H]4C[C@H](OCc4c(-c6c(Cl)cccc6Cl)noc4C4CC4)C5)sc3c2)[nH]o1 [Example 36]", "Observed Measurement": "37 nM"}
{"Molecule": "OCc1ccc([C@]2(O)CC[C@@H](OCc3c(-c4c(Cl)cccc4Cl)noc3C3CC3)CC2)c(F)c1 [Example 9-6]", "Observed Measurement": "320 nM"}
{"Molecule": "O=C(O)c1cc(F)c2nc(C3(O)C[C@H]4CC[C@@H](C3)C4OCc3c(-c4c(Cl)cccc4Cl)noc3C3CC3)sc2c1 (single isomer, unassigned) [Example 11-54]", "Observed Measurement": "390 nM"}

----------
- Target Of Assay: FXR ligand binding domain (Homo sapiens, UniProt Q96RI1)
- Assay Method Text: Mammalian One Hybrid (M1H) assay, Gal4 promoter driven transactivation in HEK293 cells
- Run Conditions: Gal4-FXR-LBD luciferase reporter, 16 h
pEC50: −log10 of the molar value.
Property: pEC50; scope: individual compounds

{"Compound": "O=C(O)c1cc(F)c2nc(C3(O)C[C@H]4CC(OCc5c(-c6c(Cl)cccc6Cl)noc5C5CC5)C[C@H]4C3)sc2c1 (some centres unmarked) [Example 11-46]", "Target Of Assay": "FXR ligand binding domain (Homo sapiens, UniProt Q96RI1)", "Bound Sign": "=", "pEC50": 6.74}
{"Compound": "O=C(O)c1ccnc([C@]2(O)[C@@H]3CC[C@H]2C[C@H](OCc2c(-c4c(Cl)cccc4Cl)noc2C2CC2)C3)c1 [Example 11-26]", "Target Of Assay": "FXR ligand binding domain (Homo sapiens, UniProt Q96RI1)", "Bound Sign": "=", "pEC50": 5.74}
{"Compound": "O=C(O)Cc1ccc([C@]2(O)CC[C@@H](OCc3c(-c4c(Cl)cccc4Cl)noc3C3CC3)CC2)c(F)c1 [Example 11-8]", "Target Of Assay": "FXR ligand binding domain (Homo sapiens, UniProt Q96RI1)", "Bound Sign": "<", "pEC50": 5.52}
{"Compound": "O=C(O)c1ccc2nc([C@]3(O)CC[C@@H](OCc4c(-c5c(Cl)cncc5Cl)noc4C4CC4)CC3)sc2c1 [Example 11-16]", "Target Of Assay": "FXR ligand binding domain (Homo sapiens, UniProt Q96RI1)", "Bound Sign": "=", "pEC50": 6.24}
{"Compound": "COCC1(OCc2c(-c3c(Cl)cccc3Cl)noc2C2CC2)C[C@H]2CC[C@@H](C1)[C@]2(O)c1nc2c(F)cc(C(=O)O)cc2s1 (single isomer, unassigned) [Example 11-41]", "Target Of Assay": "FXR ligand binding domain (Homo sapiens, UniProt Q96RI1)", "Bound Sign": "=", "pEC50": 6.49}
{"Compound": "O=C(O)c1ccc2nc(C3(O)CCC(OCc4c(-c5c(Cl)cccc5Cl)noc4C4CC4)C3)sc2c1 (centres unmarked) [Example 11-57]", "Target Of Assay": "FXR ligand binding domain (Homo sapiens, UniProt Q96RI1)", "Bound Sign": "=", "pEC50": 7.54}
{"Compound": "O=C(O)c1ccc2nc([C@]3(O)CC[C@@H](OCc4c(-c5c(C(F)F)cccc5C(F)F)noc4C4CC4)CC3)sc2c1 [Example 11-18]", "Target Of Assay": "FXR ligand binding domain (Homo sapiens, UniProt Q96RI1)", "Bound Sign": "=", "pEC50": 6.77}
{"Compound": "O=C(O)c1ccc2sc([C@]3(O)CC[C@H](OCc4c(-c5c(Cl)cccc5Cl)noc4C4CC4)CC3)nc2c1 [Example 5]", "Target Of Assay": "FXR ligand binding domain (Homo sapiens, UniProt Q96RI1)", "Bound Sign": "=", "pEC50": 5.72}
{"Compound": "O=C(O)c1ccc2nc([C@]3(O)[C@@H]4CC[C@H]3C[C@@H](OCc3c(-c5c(Cl)cccc5Cl)noc3C3CC3)C4)sc2c1 [Example 11-23]", "Target Of Assay": "FXR ligand binding domain (Homo sapiens, UniProt Q96RI1)", "Bound Sign": "=", "pEC50": 7.74}
{"Compound": "O=C(O)c1c(F)cc2nc([C@]3(O)CC[C@@H](OCc4c(-c5c(Cl)cccc5Cl)noc4C4CC4)CC3)sc2c1F [Example 14-2]", "Target Of Assay": "FXR ligand binding domain (Homo sapiens, UniProt Q96RI1)", "Bound Sign": "=", "pEC50": 5.57}
{"Compound": "NC(=O)c1cc(F)c2nc([C@]3(O)CC[C@@H](OCc4c(-c5c(Cl)cncc5Cl)noc4C4CC4)CC3)sc2c1 [Example 18]", "Target Of Assay": "FXR ligand binding domain (Homo sapiens, UniProt Q96RI1)", "Bound Sign": "=", "pEC50": 6.36}
{"Compound": "O=C(O)c1cc(F)c2nc([C@]3(O)CC[C@@H](OCc4c(-c5ccccc5OC(F)F)noc4C4CC4)CC3)sc2c1 [Example 11-7]", "Target Of Assay": "FXR ligand binding domain (Homo sapiens, UniProt Q96RI1)", "Bound Sign": "=", "pEC50": 5.89}
{"Compound": "Cc1onc(-c2c(Cl)cccc2Cl)c1CO[C@@H]1C[C@H]2CC[C@@H](C1)[C@]2(O)c1nc2ccc(C(=O)O)cc2s1 [Example 11-37]", "Target Of Assay": "FXR ligand binding domain (Homo sapiens, UniProt Q96RI1)", "Bound Sign": "=", "pEC50": 7.37}
{"Compound": "Cc1cccc(C)c1OCc1noc(C2CC2)c1CO[C@@H]1C[C@H]2CC[C@@H](C1)[C@]2(O)c1nc2c(F)cc(C(=O)O)cc2s1 [Example 11-50]", "Target Of Assay": "FXR ligand binding domain (Homo sapiens, UniProt Q96RI1)", "Bound Sign": "=", "pEC50": 8.19}
{"Compound": "Cc1cccc(C)c1-c1noc(C2CC2)c1CO[C@H]1CC[C@](O)(c2nc3ccc(C(=O)O)cc3s2)CC1 [Example 11-12]", "Target Of Assay": "FXR ligand binding domain (Homo sapiens, UniProt Q96RI1)", "Bound Sign": "=", "pEC50": 6.37}
{"Compound": "O=C(O)c1ccc2nc([C@]3(O)CC[C@@H](OCc4c(C5CC5)cnn4-c4ccccc4OC(F)F)CC3)sc2c1 [Example 11-17]", "Target Of Assay": "FXR ligand binding domain (Homo sapiens, UniProt Q96RI1)", "Bound Sign": "=", "pEC50": 5.74}
{"Compound": "O=C(O)c1ccc2nc([C@]3(O)[C@@H]4CC5C[C@H]3C[C@](OCc3c(-c6c(Cl)cccc6Cl)noc3C3CC3)(C5)C4)sc2c1 [Example 11-36]", "Target Of Assay": "FXR ligand binding domain (Homo sapiens, UniProt Q96RI1)", "Bound Sign": "=", "pEC50": 6.03}
